Test: Drug uptake in APP-YAC transgenic mouse brain at 100 mg/kg, po after 6 hrs
Assay type: ADME, organism-based
Design: dose 100 mg/kg, route oral
Settings: read-out: Drug uptake
measured quantity: concentration at 6 h (nM)

O=C(N1CCC(c2cc(F)ccc2F)(S(=O)(=O)c2ccc(Cl)cc2)CC1)C1(C(F)(F)F)CC1: 1180

1. O=C(N1CC[C@](c2cc(F)ccc2F)(S(=O)(=O)c2ccc(Cl)cc2)[C@H](O)C1)C1(C(F)(F)F)CC1 (racemic)
2. Cn1cc(C(=O)N2CCC(c3cc(F)ccc3F)(S(=O)(=O)c3ccc(Cl)cc3)CC2)c(C(F)(F)F)n1
[in] Of 1 and 2 , which one carries the higher reported concentration at 6 h? Indicate which entry you chose by stating its label.
[out] 1
(1: 7060 nM, 2: 520 nM)
